# testName: Inhibitory activity against protein kinase C from Jurkat cells.
# Format: cell-based
# Set-up: concentration or dose not given beside the values
# reportedConditions: dose or concentration not given here
Mark rule met for reported inhibition of 80% or greater; mark rule not met for anything smaller.

>>> label("O=C1ON=C(c2ccc([N+](=O)[O-])cc2)/C1=C/c1cccs1")
"rule not met"
>>> label("COc1ccc(/C=C2\\C(=O)ON=C2c2cccs2)cc1")
"rule met"
>>> label("Oc1onc(-c2cccs2)c1/C=C1\\C=CC=N1")
"rule not met"
>>> label("O=C1ON=C(c2cccs2)/C1=C/c1cccc(Cl)c1")
"rule not met"
>>> label("COc1ccc(OC)c(C2=NOC(=O)/C2=C\\c2cccs2)c1")
"rule met"
>>> label("Oc1onc(-c2cccs2)c1/C=C1/C=Nc2ccccc21")
"rule not met"
>>> label("COc1cccc(/C=C2\\C(=O)ON=C2c2cccs2)c1")
"rule not met"
>>> label("Nc1ccc(C2=NOC(=O)/C2=C\\c2cccs2)cc1")
"rule not met"
>>> label("O=C1ON=C(c2cccs2)/C1=C/c1ccco1")
"rule met"
>>> label("O=C1ON=C(c2cccs2)/C1=C/c1ccsc1")
"rule met"
>>> label("Cn1cc(/C=C2\\C(=O)ON=C2c2cccs2)c2ccccc21")
"rule not met"
>>> label("O=C1ON=C(c2ccccc2)/C1=C/c1ccco1")
"rule met"
>>> label("COc1ccccc1C1=NOC(=O)/C1=C\\c1cccs1")
"rule met"
>>> label("COc1ccc(/C=C2\\C(=O)ON=C2c2cccs2)c(OC)c1")
"rule not met"
>>> label("O=C1ON=C(c2cccs2)/C1=C/c1cccs1")
"rule met"
>>> label("O=C1ON=C(c2cccs2)/C1=C/c1ccoc1")
"rule met"
>>> label("O=C1ON=C(c2cccs2)/C1=C/c1ccc(F)cc1")
"rule met"
>>> label("O=C1ON=C(c2cccs2)/C1=C/c1ccc(O)cc1")
"rule met"
>>> label("COc1ccc(C2=NOC(=O)/C2=C\\c2cccs2)cc1")
"rule met"
>>> label("O=C1ON=C(c2cccs2)/C1=C/c1ccc(Br)cc1")
"rule met"
>>> label("CC1=CC(C)=N/C1=C/c1c(-c2cccs2)noc1O")
"rule not met"
>>> label("CN(C)c1ccc(/C=C2\\C(=O)ON=C2c2cccs2)cc1")
"rule met"

----------
# testName: Inhibitory activity against protein kinase C from Jurkat cells.
# Type: cell-based
# Parameters: concentration or dose not given beside the values
# reportedConditions: dose or concentration not given here
readoutType: inhibition

>>> observed("O=C1ON=C(c2cccs2)/C1=C/c1ccccc1")
"81%"
>>> observed("COc1cc(/C=C2\\C(=O)ON=C2c2cccs2)ccc1OC(C)=O")
"82%"
>>> observed("CC(=O)Oc1ccc(/C=C2\\C(=O)ON=C2c2cccs2)cc1")
"81%"
>>> observed("Cc1cc(O)cc(C)c1/C=C1\\C(=O)ON=C1c1cccs1")
"78%"
>>> observed("O=C1ON=C(c2cccs2)/C1=C/c1ccc(Cl)cc1")
"82%"
